molecular target: mushroom tyrosinase; assay: Kinetic studies of tyrosinase inhibition; type: biochemical; details: inhibitor conc. 5.0 μM
pKi: −log10 of the molar value.
Value Type: pKi

1 = O=C1/C(=C/c2ccccc2O)OC(=S)N1c1ccccc1 [Compound 1j]
2 = O=C1/C(=C/c2ccc(O)cc2O)OC(=S)N1c1ccccc1 [Compound 1c]
// compare measured pKi, left 1 , right 2 , return larger Mark your answer with the label of the selected entry.
2

---

target: mushroom tyrosinase; test: Kinetic studies of tyrosinase inhibition; assay type: biochemical; settings: inhibitor conc. 20.0 μM
Value Type: pKi
pKi field: float, defined as -log10 of concentration (mol/L).

May I ask what pKi has been recorded for O=C1/C(=C/c2ccccc2O)OC(=S)N1c1ccccc1 ?
5.49

---

biological target: mushroom tyrosinase; experiment: Kinetic studies of tyrosinase inhibition; format: biochemical; conditions: inhibitor conc. 2.5 μM
Value Type: Ki (µM)
Return type: number; implicit unit µM.

May I ask what Ki has been recorded for O=C1/C(=C/c2ccc(O)cc2O)OC(=S)N1c1ccccc1 ?
3.02

---

target: mushroom tyrosinase; assay: Kinetic studies of tyrosinase inhibition; assay type: biochemical; settings: inhibitor conc. 10.0 μM
Value Type: Ki (µM)

a = O=C1/C(=C/c2ccccc2O)OC(=S)N1c1ccccc1
b = O=C1/C(=C/c2ccc(O)cc2O)OC(=S)N1c1ccccc1
// compare measured Ki, left a , right b , return larger Mark your answer with the label of the selected entry.
a
